SUBJECT_OF_TEST: HGFR (Homo sapiens, UniProt P08581)
Construct: purchased Upstate 14-526
Sequence (P08581 974-1390 limits assumed): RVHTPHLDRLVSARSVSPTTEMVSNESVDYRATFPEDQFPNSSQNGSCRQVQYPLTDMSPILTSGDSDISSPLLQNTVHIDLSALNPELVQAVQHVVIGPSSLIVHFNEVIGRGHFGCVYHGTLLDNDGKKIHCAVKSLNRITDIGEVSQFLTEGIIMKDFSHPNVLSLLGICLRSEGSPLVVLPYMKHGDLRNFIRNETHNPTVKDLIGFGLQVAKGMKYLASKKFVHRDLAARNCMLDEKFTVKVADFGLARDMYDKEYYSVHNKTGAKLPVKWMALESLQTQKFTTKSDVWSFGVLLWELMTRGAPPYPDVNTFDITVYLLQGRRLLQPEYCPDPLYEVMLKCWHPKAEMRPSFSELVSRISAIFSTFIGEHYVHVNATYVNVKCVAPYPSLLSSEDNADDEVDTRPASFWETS
METHOD_NOTES: HGFR continuous-coupled spectrophotometric assay
Type: biochemical
DETAILS: Table 3, column 'Ki (μM) or I (%)': cells without % sign; read-out: Ki
Answer each item with its documented Ki.
Response body: numeric value in µM, unit text excluded.

For the compound shown here, CC(Oc1cc(-c2ccc(C(=O)N3C[C@@H](C)N[C@@H](C)C3)cc2F)cnc1N)c1c(Cl)ccc(F)c1Cl (stereo partly shown) , give the reported Ki.
0.224

For the compound shown here, CC(Oc1cc(-c2ccc(O)nc2)cnc1N)c1c(Cl)ccc(F)c1Cl (stereo not shown) , give the reported Ki.
0.0432

For the compound shown here, Cc1cc(C(=O)N2C[C@@H](C)N[C@@H](C)C2)ccc1-c1cnc(N)c(OC(C)c2c(Cl)ccc(F)c2Cl)c1 (stereo partly shown) , give the reported Ki.
0.259

For the compound shown here, CC(Oc1cc(-c2ccc(C(=O)N3CCNCC3)cc2)cnc1N)c1c(Cl)ccc(F)c1Cl (stereo not shown) , give the reported Ki.
0.0475

* * *

SUBJECT_OF_TEST: HGFR (Homo sapiens, UniProt P08581)
Construct: purchased Upstate 14-526
METHOD_NOTES: HGFR continuous-coupled spectrophotometric assay
Assay type: biochemical
DETAILS: at 1 pM; Table 6, library procedure 41; read-out: % Inhibition (percent c-MET inhibition)
METRIC_NAME: inhibition at 1 pM
Please provide the amount together with its unit, number first.

For the compound shown here, Cc1cc2cc(CNC(=O)c3cnc(N)c(OCc4c(Cl)cccc4Cl)c3)ccc2[nH]1 , give the reported inhibition at 1 pM.
20%

For the compound shown here, CCN(CC)CC1(O)CCN(C(=O)c2cnc(N)c(OCc3c(Cl)cccc3Cl)c2)CC1 , give the reported inhibition at 1 pM.
71%

For the compound shown here, Nc1ncc(C(=O)NC[C@H]2CC[C@H](c3nc4ccccc4[nH]3)CC2)cc1OCc1c(Cl)cccc1Cl , give the reported inhibition at 1 pM.
38%

For the compound shown here, Nc1ncc(C(=O)N2CCC(COCc3ccccc3F)CC2)cc1OCc1c(Cl)cccc1Cl , give the reported inhibition at 1 pM.
10%

* * *

Answer each item with its documented IC50.
SUBJECT_OF_TEST: Met kinase domain (GST fusion protein) (Homo sapiens, UniProt P08581)
Construct: Purified GST fusion protein containing the Met kinase domain
METHOD_NOTES: Met transphosphorylation assay (ELISA, poly(glu-tyr) substrate);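 note: Cell-free ELISA with plate-bound poly(Glu:Tyr 4:1) phosphorylated by GST-fused Met kinase domain plus ATP and Mn2+, phosphotyrosine detected by anti-phosphotyrosine antibody with HRP and ABTS read-out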
Format: biochemical
DETAILS: Table 2; read-out: Met IC50
Response body: numeric value in nM, unit text excluded.

Identify the measured IC50 of CCN(CC)CCS(=O)(=O)Nc1ccc(-c2cnc(N)c(OC(C)c3c(Cl)ccc(F)c3Cl)c2)cc1 (stereo not shown) [Example I-323] for Met kinase domain (GST fusion protein) (Homo sapiens, UniProt P08581).
80

Identify the measured IC50 of CC(Oc1cc(-c2ccc(NS(=O)(=O)CCN3CCCCC3)cc2)cnc1N)c1c(Cl)ccc(F)c1Cl (stereo not shown) [Example I-325] for Met kinase domain (GST fusion protein) (Homo sapiens, UniProt P08581).
89

Identify the measured IC50 of CC(Oc1cc(-c2ccc(NS(=O)(=O)CCNC3CC3)cc2)cnc1N)c1c(F)ccc(F)c1Cl (stereo not shown) [Example I-289] for Met kinase domain (GST fusion protein) (Homo sapiens, UniProt P08581).
160

Identify the measured IC50 of Nc1ncc(-c2cccc(NS(=O)(=O)CCNCC3CC3)c2)cc1OCc1c(F)ccc(F)c1Cl [Example I-265] for Met kinase domain (GST fusion protein) (Homo sapiens, UniProt P08581).
1000
